Biological target: UniProt:P27338
Experiment: Monoaminooxidase B inhibition (H2O2/vanillic acid/HRP readout)
Format: biochemical
Method: The organic amines p-tyramine or benzylamine were used as substrates for the Monoamine oxidase A (MAO-A) and B (MAO-B) enzymes respectively. The H2O2 produced by this reaction was quantified by reaction with vanillic acid, catalysed by horse radish peroxidase (HRP). The reactions were carried out in polystyrene microtitre plates. […] The reactions were followed in a microtitre plate absorbance reader eg Spectramax M5 (Molecular Devices Corporation). […]
attributeMeasured: IC50
# number then unit; no other words

CCC/C=C1\OC(=O)C2=C1CCC=C2 [Ligustilide]; 24.9 µM

Now let's try a different one.
Consider the compound CCCC[C@@H]1OC(=O)c2ccccc21 (stereo in doubt) [3-n-butylphthalide, 3-n-Butylphthalide] and give its measured IC50.
56.1 µM

----------
Target: Monoamine oxidase B (MAO-B) (Homo sapiens)
Sequence (P27338 whole entry, species assumed): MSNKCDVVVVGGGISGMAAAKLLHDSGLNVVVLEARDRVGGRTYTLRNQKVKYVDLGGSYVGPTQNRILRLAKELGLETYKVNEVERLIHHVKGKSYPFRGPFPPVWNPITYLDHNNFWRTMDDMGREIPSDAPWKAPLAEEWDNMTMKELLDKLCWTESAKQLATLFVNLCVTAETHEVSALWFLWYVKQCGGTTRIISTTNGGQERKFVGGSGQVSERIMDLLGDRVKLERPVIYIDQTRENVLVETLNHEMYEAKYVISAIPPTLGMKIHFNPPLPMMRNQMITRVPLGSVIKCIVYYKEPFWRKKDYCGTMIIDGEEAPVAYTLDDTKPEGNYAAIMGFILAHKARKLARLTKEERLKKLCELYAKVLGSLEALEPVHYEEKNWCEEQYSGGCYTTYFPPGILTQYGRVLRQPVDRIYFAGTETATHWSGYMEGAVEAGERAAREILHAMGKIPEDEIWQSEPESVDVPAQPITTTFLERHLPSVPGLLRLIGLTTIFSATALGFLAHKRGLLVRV
Assay: Monoaminooxidase B inhibition (H2O2/vanillic acid/HRP readout)
Type: biochemical
Details: substrate benzylamine 0.5 mM; +/− s.e.m.; read-out: IC50 [μM] for Inhibition of MAO-B
attributeMeasured: IC50 (µM)
The figure you give is taken to be in µM; do not add the unit.

CCC/C=C1\OC(=O)c2ccc(O)cc21 [Senkyunolide C]; 2.14

Consider the compound CCCC[C@@H]1OC(=O)[C@@H]2C=CCC[C@H]12 [Cnidilide] and give its measured IC50.
109

----------
This section presents compounds with their documented pIC50 values.
Molecular target: human serotonin re-uptake transporter (hSERT) (Homo sapiens, UniProt P31645)
Sequence (P31645 whole entry): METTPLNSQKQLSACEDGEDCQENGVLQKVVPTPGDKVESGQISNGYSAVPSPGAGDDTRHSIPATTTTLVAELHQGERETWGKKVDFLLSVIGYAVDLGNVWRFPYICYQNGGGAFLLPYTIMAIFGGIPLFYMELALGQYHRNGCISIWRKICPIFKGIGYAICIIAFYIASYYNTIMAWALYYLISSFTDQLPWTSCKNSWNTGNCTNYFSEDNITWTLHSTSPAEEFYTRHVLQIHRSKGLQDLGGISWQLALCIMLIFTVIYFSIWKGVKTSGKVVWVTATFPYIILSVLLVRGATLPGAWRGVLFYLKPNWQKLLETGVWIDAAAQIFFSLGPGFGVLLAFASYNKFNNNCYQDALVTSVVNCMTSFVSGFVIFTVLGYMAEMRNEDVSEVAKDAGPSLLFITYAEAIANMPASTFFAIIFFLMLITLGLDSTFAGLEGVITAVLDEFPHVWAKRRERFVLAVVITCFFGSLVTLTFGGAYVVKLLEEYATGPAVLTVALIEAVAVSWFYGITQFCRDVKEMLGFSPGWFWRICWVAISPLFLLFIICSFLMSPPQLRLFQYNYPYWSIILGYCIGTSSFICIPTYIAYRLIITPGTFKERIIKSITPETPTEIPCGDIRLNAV
Assay: Serotonin uptake inhibition in HEK-293 cells expressing hSERT
Details: transfected HEK-293 cells; 20 nM (3H) serotonin, 30 minutes; average +/− s.e.m.; read-out: IC50 for tritiated serotonin uptake
Value format note: pIC50 is -log10 of concentration (mol/L); just state the number.

CCCC[C@@H]1OC(=O)c2ccccc21 (stereo in doubt) [3-n-butylphthalide, 3-n-Butylphthalide]; 4.45
CCC/C=C1\OC(=O)C2=C1CCC=C2 [Ligustilide]; 4.69
CCC/C=C1\OC(=O)c2c(O)cccc21 [Senkyunolide B]; 4.12

Query the reported pIC50 for human serotonin re-uptake transporter (hSERT) (Homo sapiens, UniProt P31645); item: CCCC[C@@H]1OC(=O)[C@@H]2C=CCC[C@H]12 [Cnidilide]
4.39

Try this compound too: CCC/C=C1\OC(=O)c2ccc(O)cc21 [Senkyunolide C]
4.50

Try this compound too: CCCC[C@@H]1OC(=O)C2=C1CCC=C2 [Senkyunolide A]
4.49

----------
Molecular target: Human recombinant norepinephrine transporter (Homo sapiens, UniProt P23975)
Sequence (P23975 whole entry): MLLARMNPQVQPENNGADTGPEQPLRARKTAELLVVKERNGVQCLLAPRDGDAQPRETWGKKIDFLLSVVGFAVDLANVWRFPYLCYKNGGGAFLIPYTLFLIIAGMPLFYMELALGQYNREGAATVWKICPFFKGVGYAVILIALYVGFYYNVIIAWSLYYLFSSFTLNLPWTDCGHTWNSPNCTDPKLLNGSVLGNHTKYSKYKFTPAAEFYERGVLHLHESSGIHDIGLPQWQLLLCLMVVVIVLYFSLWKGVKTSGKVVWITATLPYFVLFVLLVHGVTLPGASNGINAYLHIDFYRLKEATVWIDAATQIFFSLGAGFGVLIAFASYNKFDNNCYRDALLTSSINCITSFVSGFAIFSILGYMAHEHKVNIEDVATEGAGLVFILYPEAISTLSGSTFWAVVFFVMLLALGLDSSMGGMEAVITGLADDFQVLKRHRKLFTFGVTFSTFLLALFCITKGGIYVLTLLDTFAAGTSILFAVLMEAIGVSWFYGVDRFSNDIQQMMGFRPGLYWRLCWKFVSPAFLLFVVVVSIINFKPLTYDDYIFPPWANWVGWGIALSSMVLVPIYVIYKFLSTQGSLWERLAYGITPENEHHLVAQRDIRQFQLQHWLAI
Assay: Norepinephrine uptake inhibition in MDCK cells
Conditions: 25 nM [3H]Norepinephrine, 10 minutes
attributeMeasured: pIC50
Value format note: pIC50 is -log10 of concentration (mol/L); just state the number.

Consider the molecule CCCC[C@@H]1OC(=O)c2ccccc21 (stereo in doubt) [3-n-butylphthalide, 3-n-Butylphthalide] and give its measured pIC50.
4.63
